For each of the molecules below, state its AC40.
Test system: mESC Bmi1-luciferase reporter, firefly/renilla ratio, 24 h
Method: compounds raising Bmi1 reporter signal – mouse embryonic stem cells, luciferase, cherry-pick, esBAF inhibitor project, dose response (AID 651717);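 note: luciferase knocked into Bmi1 locus with EF-1a renilla as cell number control; rising ratio signals esBAF inhibition which derepresses Bmi1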

# get_value(readout='AC40', item= Cc1cccc(N2C(=O)CC(N(O)c3ccccc3)C2=O)c1 (stereo not given) )
28.4 µM

# get_value(readout='AC40', item= "COc1ccc(C(=O)CCc2ccccc2O)c(OC)c1" )
3.58 µM

# get_value(readout='AC40', item= "Cc1ccc(C(=O)Nc2ccc3c(c2)OCO3)cc1S(=O)(=O)N1CCCCC1" )
1.69 µM

# get_value(readout='AC40', item= Cc1ccc(OCc2cc(C(=O)N3CCC(c4ccccc4Cl)C3)no2)cc1C (stereo not given) )
7.33 µM

# get_value(readout='AC40', item= "COc1ccccc1-c1nc(SCc2ccccn2)n[nH]1" )
8.67 µM

# get_value(readout='AC40', item= "COC(=O)c1ccc2[nH]c(C(C)(C)O)c(C)c2c1" )
1.37 µM

# get_value(readout='AC40', item= "Cc1ccc(O)c(N=Cc2ccc(C)s2)c1" )
25.8 µM

# get_value(readout='AC40', item= "Cc1cccc(-c2noc(Cc3ccccc3)n2)c1" )
2.87 µM

# get_value(readout='AC40', item= "N#Cc1nc(COc2ccccc2)oc1N1CCCCC1" )
15.6 µM

# get_value(readout='AC40', item= O=C(NC1CCCCC1)c1n[nH]c2c1CC(c1ccccc1)CC2 (stereo not given) )
0.996 µM

# get_value(readout='AC40', item= "CC1CCN(c2oc(-c3cccc4ccccc34)nc2C#N)CC1" )
2.52 µM

# get_value(readout='AC40', item= COc1ccc(N2CCN(C(=O)C3Cc4ccccc4CN3C(=O)c3ccccc3)CC2)cc1 (stereo not given) )
16.5 µM

# get_value(readout='AC40', item= "Cc1ccnc(NC(=O)c2ccc(OCc3c(C)noc3C)cc2)c1" )
3.44 µM

# get_value(readout='AC40', item= "CC(C)(C)NC(=O)Cn1nnc(-c2ccccc2Cl)n1" )
5.29 µM

# get_value(readout='AC40', item= "CCCc1cc(C(=O)Nc2cc(Br)ccc2O)no1" )
8.53 µM

# get_value(readout='AC40', item= "Oc1ccc(-c2nnc(SCc3ccccc3)o2)cc1" )
7.97 µM

# get_value(readout='AC40', item= "CCCCSc1nnc(-c2c[nH]c3ccccc23)n1C" )
6.69 µM

# get_value(readout='AC40', item= "COc1cccc(Nc2cc(C)c3ccccc3n2)c1" )
6.06 µM

# get_value(readout='AC40', item= "Oc1ccccc1/C=N/N1CCN(c2ccccn2)CC1" )
2.75 µM

# get_value(readout='AC40', item= "COc1ccc(Cl)c(-c2cc(C(=O)Nc3ccccc3)[nH]n2)c1" )
0.423 µM

# get_value(readout='AC40', item= "Nc1ccc2c(c1)Cc1cc(N)c(Cl)cc1-2" )
3.41 µM

# get_value(readout='AC40', item= "Oc1[nH]c2ccccc2c1/C=N/c1nccs1" )
4.59 µM

# get_value(readout='AC40', item= "CCn1c(SCc2ccccc2Cl)nc2ccccc21" )
5.49 µM

# get_value(readout='AC40', item= "Cc1cccc(N/N=C/c2ccc(C)s2)c1" )
2.91 µM

# get_value(readout='AC40', item= O=C(Nc1ccc(F)c(Cl)c1)c1cc(C2CCCN(C(=O)C3CC3)C2)on1 (stereo not given) )
< 0.26 µM
